# Species: Rattus norvegicus
# assay-explanation: In vitro inhibition of blood platelet aggregation (ADP) in rats
# Assay type: functional
pEC50: −log10 of the molar value.
The label depends only on pEC50: y if it is at least 5, n if it is smaller.

Problem: Can O=C1CN2Cc3cc(N4CCCCC4)ccc3N=C2N1 be said to have pEC50 at or above 5?
Solution: y

Problem: Given CC1CCN(c2ccc3c(c2Cl)CN2CC(=O)NC2=N3)CC1 , state whether its pEC50 is at least 5.
Solution: y

Problem: Tell me whether pEC50 is at least 5 here: O=C1CN2Cc3cc(N4CCOCC4)c(Cl)cc3N=C2N1
Solution: y

Problem: Does CN(C)c1cc2c(cc1Cl)NC1=NC(=O)CN1C2 have a reported pEC50 of at least 5?
Solution: y

Problem: Check if pEC50 >= 5 (inclusive). Item: Cc1cc2c(cc1N1CCCCC1)NC1=NC(=O)CN1C2
Solution: n

Problem: Confirm if pEC50 reported for the compound CC1CCCCN1c1ccc2c(c1)CN1CC(=O)NC1=N2 (configuration not stated) is 5 or above.
Solution: y

###

Items are presented alongside their recorded platelet aggregation.
# System: Rattus norvegicus
# assay-explanation: Duration of inhibition of blood platelet aggregation in rats (ADP) 3 hours after oral administration at dose 10 mg/kg
# Type: functional

Use these answered entries as a reference point.
O=C1CN2Cc3cc(N4CCCCC4)c(Cl)cc3N=C2N1    0.189 ΔA
O=C1CN2Cc3cc(N4CCCCC4)ccc3N=C2N1    0.158 ΔA
CN(C)c1cc2c(cc1Cl)NC1=NC(=O)CN1C2    0.171 ΔA

Please find the next molecule below.
Problem: Report measured platelet aggregation; entry is CN(C)c1ccc2c(c1)CN1CC(=O)NC1=N2
Solution: 0.16 ΔA

###

# Organism: Rattus norvegicus
# assay-explanation: In vitro inhibition of blood platelet aggregation (ADP) in rats
# Type: functional
measurement-kind: pEC50
Just so you know, pEC50 here is -log10 of the concentration in molar units; reply with that number alone.

O=C1CN2Cc3c(ccc(N4CCCCC4)c3Cl)NC2=N1    5.10

Problem: Look up pEC50 of O=C1CN2Cc3cc(N4CCOCC4)ccc3N=C2N1 and report it.
Solution: 5.30

Problem: Specify measured pEC50 for CN(C)c1cccc2c1CN1CC(=O)NC1=N2 .
Solution: 5.57

Problem: Identify measured pEC50 corresponding to O=C1CN2Cc3cc(N4CCCCC4)c(Cl)cc3N=C2N1
Solution: 6.40

Problem: # return recorded pEC50 for entry Cc1cc2c(cc1N1CCCCC1)CN1CC(=O)NC1=N2
Solution: 5.27

Problem: Identify measured pEC50 corresponding to O=C1CN2Cc3c(Cl)cc(N4CCCCC4)cc3N=C2N1
Solution: 3.46

Problem: Please look at this molecule and report its pEC50: O=C1CN2Cc3c(ccc(N4CCCC4)c3Cl)NC2=N1
Solution: 5.52

Problem: Return value of pEC50 for input O=C1CN2Cc3ccc(N4CCOCC4)cc3N=C2N1 , no commentary.
Solution: 4.02

Problem: Note pEC50 for the molecule shown: O=C1CN2Cc3c(cccc3N3CCCCC3)NC2=N1
Solution: 4.65

Problem: Using the record for Nc1ccc2c(c1)CN1CC(=O)NC1=N2 , state its measured pEC50.
Solution: 3.77

Problem: Give pEC50 for the following molecule: O=C1CN2Cc3cc(N4CCCC4)ccc3N=C2N1
Solution: 5.59

Problem: Specify pEC50 for CN1CCN(c2ccc3c(c2Cl)CN2CC(=O)NC2=N3)CC1 and stop.
Solution: 5.10

Problem: Answer with the recorded pEC50 of CC1CCCCN1c1ccc2c(c1Cl)CN1CC(=O)NC1=N2 (stereo unspecified) only.
Solution: 5.40

Problem: Entry CNc1ccc2c(c1)CN1CC(=O)NC1=N2 needs its pEC50 filled in; supply it.
Solution: 4.62

Problem: State its pEC50 for this molecule: O=C1CN2Cc3ccc(N4CCCCC4)cc3N=C2N1
Solution: 4.34

Problem: Return the recorded pEC50 value; entry: CN(Cc1ccccc1)c1ccc2c(c1)CN1CC(=O)NC1=N2
Solution: 4.59

Problem: Give me measured pEC50, please, for this molecule: CN(C)c1cc(Cl)c2c(c1)NC1=NC(=O)CN1C2
Solution: 3.54

Problem: Provide one value: measured pEC50 of CC1CCN(c2ccc3c(c2)CN2CC(=O)NC2=N3)CC1
Solution: 5.55

Problem: # return recorded pEC50 for entry CN(C)c1ccc2c(c1)CN1CC(=O)NC1=N2
Solution: 5.27

Problem: Answer with the recorded pEC50 of CCN(CC)c1ccc2c(c1Cl)CN1CC(=O)NC1=N2 only.
Solution: 5.25

Problem: Give recorded pEC50. CN(C)c1ccc2c(c1Cl)CN1CC(=O)NC1=N2
Solution: 5.15
